- Tested on: UO-31
- method-notes: NCI tumour cell line growth inhibition, 48 h
Calls of active or inactive are those of the source. Cut-off read from the data, not from the text of the source: active = GI50 up to about 1.1 µM and inactive = higher.
GI50 listing for selected compounds.

Example results:
compound=N=C(N)NS(=O)(=O)c1ccc(NC(=O)c2ccc(Cl)c3c(Nc4ccc(S(=O)(=O)N=C(N)N)cc4)c4ccccc4nc23)cc1 measurement_target=UO-31 test_value="83.9 µM (inactive)"
compound=O=C(CCc1ccccc1)ON1C(=S)NC(c2ccccc2)(c2ccccc2)C1=S measurement_target=UO-31 test_value="43.4 µM (inactive)"

IN: Look up GI50: "CCOC(=O)Cn1nc2ccc(Nc3c(C)[n+]([O-])c4cc(F)c(OCC)cc4[n+]3[O-])cc2n1"
OUT: > 100 µM (inactive)

IN: Same lookup for "O=Cc1ccccc1COC(=O)c1cc(C(=O)OCc2ccccc2C=O)c(C(=O)OCc2ccccc2C=O)cc1C(=O)OCc1ccccc1C=O" , please.
OUT: > 100 µM (inactive)

###

- System: RXF 631
- method-notes: NCI tumour cell line growth inhibition, 48 h
Where a name gives a salt, the structure may show the parent alone. Active and inactive are the calls of the source. No stated cut-off is given here; in the data, active = GI50 up to about 1.1 µM and inactive = higher.
Use one of these outcomes when replying: 1 (yes) = active, 0 (no) = inactive

Look over these answered cases.
molecule="CC(C)Cc1ccc(C(C)CC2=CCC(CN(C)C)C2=O)cc1 (stereo not drawn)" measurement_target="RXF 631" assigned_category="0 (no)"
molecule=Clc1cc(Cl)c2n[se]nc2c1 measurement_target="RXF 631" assigned_category="0 (no)"
molecule="Nc1ccc2cc3ccc(N)cc3nc2c1 [PROFLAVINE SULFATE]" measurement_target="RXF 631" assigned_category="0 (no)"
molecule="COC(=O)C1Cc2c(n(C)c3ccccc23)C(c2ccccc2)N1 (stereo not drawn)" measurement_target="RXF 631" assigned_category="0 (no)"
molecule=COc1ccc2nc3cc(Cl)ccc3c(NCCCN(CCCl)CCCl)c2c1 measurement_target="RXF 631" assigned_category="1 (yes)"
molecule="COc1ccc(NC(=O)CC2SC(Nc3ccc(Cl)cc3C)=NC2=O)c([N+](=O)[O-])c1 (stereo not drawn)" measurement_target="RXF 631" assigned_category="0 (no)"

IN: GET /call?item= "CCOc1ccc(/N=C\c2ccc3cc(C)ccc3n2)cc1" returns the recorded outcome of this test.
OUT: 0 (no)

IN: Same lookup for NC(=O)C12CCC1C1CCCCC12N1CCOCC1 (stereo not drawn) , please.
OUT: 0 (no)

###

- Test system: HT-29
- method-notes: NCI tumour cell line growth inhibition, 48 h
Active and inactive are the calls of the source. Cut-off read from the data, not from the text of the source: active = GI50 up to about 1.1 µM and inactive = higher.
recorded-metric: GI50

Example results:
compound=COc1ccc2nc3cc(Cl)ccc3c(NCCCN(CCCl)CCCl)c2c1 test_value="0.0119 µM (active)"
compound=CN(C)CCCNc1ccc2ncn3c4ccccc4c(=O)c1c23 test_value="4.88 µM (inactive)"
compound=O=C(/C=C(\O)C(=O)O)/C=C(\O)c1ccc(Cl)cc1 test_value="> 100 µM (inactive)"
compound=COc1ccc(CN(CCc2c[nH]c3ccccc23)Cc2ccc(OC)cc2)cc1 test_value="1.29 µM (inactive)"
compound=ON=C(CC(O)(C(F)(F)Cl)C(F)(F)Cl)CC(O)(C(F)(F)Cl)C(F)(F)Cl test_value="9.14 µM (inactive)"
compound="O=C(O)CC1NCc2cc3ccccc3nc21 (stereo not given)" test_value="> 100 µM (inactive)"
compound="CCCCCCCCOCC(COC(=O)CCCCCCC)OC(=O)CCCCCCC (stereo not given)" test_value="> 100 µM (inactive)"
compound=O=C(c1ccccc1)c1cn(/N=C\c2ccccc2)c(=O)nc1-c1ccccc1 test_value="> 100 µM (inactive)"

IN: Look up GI50: "Cc1ccc(Nc2cc(=O)[nH]c(=S)[nH]2)cc1"
OUT: > 100 µM (inactive)

IN: Same lookup for O=C(O)c1ccc(C2C3C=CC(C3)C2[N+](=O)[O-])cc1 (stereo not given) , please.
OUT: > 100 µM (inactive)

IN: Same lookup for O=C1OC(=O)C2C1C(c1ccccc1[N+](=O)[O-])C=C(c1ccco1)N2c1ccncc1 (stereo not given) , please.
OUT: 2.57 µM (inactive)

IN: Same lookup for O=C(OC1OC2COC(=O)c3cc(O)c(O)c(O)c3-c3c(cc(O)c(O)c3O)C(=O)OC3C2OC(=O)[C@@]24CC(=O)[C@@](O)(OC25C(=O)O[C@H]2[C@@H](O)CO[C@@]25O)C2(O)Oc5c(O)c(O)cc(c5C24)C(=O)OC13)c1cc(O)c(O)c(O)c1 (stereo not given in full) , please.
OUT: 23.2 µM (inactive)

IN: Same lookup for CSc1nc(NC2OCC(OC(C)=O)C(OC(C)=O)C2OC(C)=O)c2c(n1)OCC2=O (stereo not given) , please.
OUT: > 100 µM (inactive)

IN: Same lookup for CCC(C)C1(O)OC2CC3(C)OC(=CC3=O)/C(C)=C\C3OC(=O)C1(C)C32 (stereo not given) , please.
OUT: 14.2 µM (inactive)

###

GI50 listing for selected compounds.
- Test system: HCT-116
- method-notes: NCI tumour cell line growth inhibition, 48 h
Calls of active or inactive are those of the source. Rule as the data show it: active = GI50 up to about 1.1 µM and inactive = higher.

Example results:
compound=CN(C)c1n/c(=N/c2ccc3c(c2)OCO3)ss1 measurement_target=HCT-116 test_value="49 µM (inactive)"
compound=COc1ccc(OC)c(CNc2ccc(O)c(C(=O)NCCc3ccc(F)cc3)c2)c1 measurement_target=HCT-116 test_value="12.1 µM (inactive)"

IN: Look up GI50: O=CN(CCN1CCCC1)C1CCc2cc(Cl)c(Cl)cc2C1 (stereo not given)
OUT: 10.6 µM (inactive)

IN: Same lookup for "O=C(/C=C/c1ccc(/C=C/C(=O)c2ccc(O)cc2)cc1)c1ccc(O)cc1" , please.
OUT: > 100 µM (inactive)

IN: Same lookup for O/N=C1/C(=C/c2ccc3c(c2)OCO3)CCCC1C(NO)c1ccc2c(c1)OCO2 (stereo not given) , please.
OUT: 17.3 µM (inactive)

###

- Tested on: OVCAR-3
- method-notes: NCI tumour cell line growth inhibition, 48 h
Calls of active or inactive are those of the source. No stated cut-off is given here; in the data, active = GI50 up to about 1.1 µM and inactive = higher.
recorded-metric: GI50

IN: Look up GI50: CC1OC(OC2C(O)COC(OC3C(C)OC(OC4C(OC(=O)[C@]56CCC(C)(C)C[C@@H]5C5=CCC7[C@@]8(C)C[C@H](O)[C@H](OC9OC(CO)C(O)C(O)C9O)[C@@](C)(CO)[C@@H]8CC[C@@]7(C)[C@]5(C)CC6)OCC(O)C4O)C(O)C3O)C2O)C(O)C(O)C1O (some centres undefined)
OUT: 18.1 µM (inactive)

IN: Same lookup for "COc1ccc2nc3cc(Cl)ccc3c(NCCCN(CCCl)CCCl)c2c1" , please.
OUT: 0.0432 µM (active)

###

- Tested on: NCI/ADR-RES
- method-notes: NCI tumour cell line growth inhibition, 48 h
Calls of active or inactive are those of the source. Cut-off read from the data, not from the text of the source: active = GI50 up to about 1.1 µM and inactive = higher.
Use one of these outcomes when replying: label 1 for active, label 0 for inactive

Look over these answered cases.
compound=O=C(O)c1cccc2cccc(-c3c4ccc(=O)cc-4oc4cc(O)ccc34)c12 assigned_category="label 0"
compound="CC(C)(C)OC(=O)NC(Cc1ccccc1)OCc1ccccc1 (stereo unspecified)" assigned_category="label 0"
compound=CCCCCC(=O)OC[n+]1ccc(-c2c(COC(=O)NC(C)C)c(COC(=O)NC(C)C)c3n2CCC3)cc1 assigned_category="label 0"
compound=O=C1c2cccc3cc4ccccc4c(c23)C(=O)N1CCNCCN1C(=O)c2cccc3cc4ccccc4c(c23)C1=O assigned_category="label 1"
compound=COc1ccc(/C=C/c2cc(O)cc(OC)c2)cc1 assigned_category="label 0"

IN: GET /call?item= COC(=O)CC(CNC(=O)OCc1ccccc1)OCc1ccc(OC)cc1 (stereo unspecified) returns the recorded outcome of this test.
OUT: label 0

IN: Same lookup for "C/C(=N\NC(=S)NNC(=S)N(C)c1ccccc1)c1ccccn1" , please.
OUT: label 0

IN: Same lookup for "C=C(C)CNC(=S)N(N)c1ccc(OC)cc1" , please.
OUT: label 0

IN: Same lookup for "COc1ccc(N2C(=O)/C(=C/c3ccc(N(CCC#N)CCC#N)cc3)N=C2c2ccccc2)cc1" , please.
OUT: label 0

IN: Same lookup for "N#Cc1c(-c2ccc(Cl)cc2)c2c([nH]c1=O)-c1cc([N+](=O)[O-])ccc1CCC2" , please.
OUT: label 0

###

- Test system: ACHN
- method-notes: NCI tumour cell line growth inhibition, 48 h
Activity calls are given as the source filed them. No stated cut-off is given here; in the data, active = GI50 up to about 1.1 µM and inactive = higher.
Use one of these outcomes when replying: active, inactive

Look over these answered cases.
compound="CC(=O)O[C@H]1C(=O)[C@@]2(C)[C@H]([C@H](OC(=O)c3ccccc3)[C@]3(O)C[C@H](OC(=O)[C@H](O)[C@@H](NC(=O)CC(C)(C)C)c4ccccc4)C(C)=C1C3(C)C)C1(OC(C)=O)CO[C@@H]1C[C@@H]2O (some centres undefined)" assigned_category=active
compound=Cc1cc(C)c(S(=O)(=O)N2CCN(S(=O)(=O)c3c(C)cc(C)cc3C)OCCCCCO2)c(C)c1 assigned_category=inactive
compound=COc1ccc(OC)c(CNc2ccc(O)c(C(=O)NCCc3ccc(F)cc3)c2)c1 assigned_category=inactive
compound=Cc1nc(-c2cccnc2)sc1C(=O)/C=C/c1ccc(Cl)cc1Cl assigned_category=inactive
compound=CC(C)(/C=N/O)/[N+]([O-])=C/c1ccccc1 assigned_category=inactive
compound=COC(=O)c1sc2c(c1C(=O)OC)/C(=N/c1ccc(OC)cc1)S/C2=N\c1ccc(OC)cc1 assigned_category=inactive

IN: GET /call?item= "CCCCc1ccc(Nc2nc(O)c3ncn(COCCO)c3n2)cc1" returns the recorded outcome of this test.
OUT: inactive

IN: Same lookup for "O=C(CCCn1cnc([N+](=O)[O-])n1)NCCCn1ccnc1[N+](=O)[O-]" , please.
OUT: inactive

IN: Same lookup for CCCCCCCCOCC(COC(=O)CCCCCCC)OC(=O)CCCCCCC (centres undefined) , please.
OUT: inactive
